target-entity: human ether-à-go-go-related gene (hERG) potassium channel (human);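 note: peak tail current of the secondary pulse compared with the same well before compound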
Sequence (Q12809 whole entry, looked up): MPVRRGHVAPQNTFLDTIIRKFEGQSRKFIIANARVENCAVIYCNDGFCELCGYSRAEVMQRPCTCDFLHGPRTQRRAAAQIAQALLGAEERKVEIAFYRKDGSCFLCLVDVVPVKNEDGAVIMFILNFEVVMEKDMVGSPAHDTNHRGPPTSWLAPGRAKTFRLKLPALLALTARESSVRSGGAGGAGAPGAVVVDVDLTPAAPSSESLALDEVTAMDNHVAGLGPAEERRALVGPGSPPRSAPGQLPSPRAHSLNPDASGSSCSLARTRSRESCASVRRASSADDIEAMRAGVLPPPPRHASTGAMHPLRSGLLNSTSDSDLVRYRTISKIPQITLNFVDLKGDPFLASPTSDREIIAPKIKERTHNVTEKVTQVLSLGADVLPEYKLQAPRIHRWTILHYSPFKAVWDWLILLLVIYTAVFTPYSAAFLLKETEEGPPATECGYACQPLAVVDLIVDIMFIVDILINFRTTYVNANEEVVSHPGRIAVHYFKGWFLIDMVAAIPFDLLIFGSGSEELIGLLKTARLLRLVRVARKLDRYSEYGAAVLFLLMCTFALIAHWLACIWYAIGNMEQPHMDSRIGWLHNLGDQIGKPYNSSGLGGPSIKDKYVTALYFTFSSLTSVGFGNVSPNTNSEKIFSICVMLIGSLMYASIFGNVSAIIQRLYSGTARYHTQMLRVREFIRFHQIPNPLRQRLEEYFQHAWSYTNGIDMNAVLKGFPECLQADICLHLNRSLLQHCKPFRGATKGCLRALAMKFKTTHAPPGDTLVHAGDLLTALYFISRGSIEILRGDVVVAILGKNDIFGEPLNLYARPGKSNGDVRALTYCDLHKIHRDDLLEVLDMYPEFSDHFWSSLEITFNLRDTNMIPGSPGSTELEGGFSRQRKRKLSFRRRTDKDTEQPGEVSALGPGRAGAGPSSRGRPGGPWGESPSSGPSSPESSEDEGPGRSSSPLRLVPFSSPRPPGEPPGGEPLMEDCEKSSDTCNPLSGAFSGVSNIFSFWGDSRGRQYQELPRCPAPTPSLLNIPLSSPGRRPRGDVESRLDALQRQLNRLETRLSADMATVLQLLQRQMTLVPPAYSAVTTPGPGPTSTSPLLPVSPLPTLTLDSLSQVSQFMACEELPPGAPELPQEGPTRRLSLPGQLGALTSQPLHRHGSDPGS
experimental-protocol: primary screen, population patch clamp on CHO cells stably expressing hERG; higher = less effect of the substance
Screen size: about 310,000 compounds; about 14,000 (4.5%) showed an effect of 50% or more. The effect is printed as a negative number. For the sample, strong results were picked, then their nearest neighbours and some compounds at random.
Use -20% as the dividing line for hERG current change (%, negative = inhibition) at 10uM, with the line itself on the fulfilled side and lower values as not fulfilled.

The examples below pair each entry with its known result.
compound | cat
CN1OC(COC(=O)c2ccc(Cl)cc2)CC1c1ccccc1 (stereo not shown) | fulfilled
CCOC(=O)N1CCN(c2cc(C)c(C(C)=O)cc2F)CC1 | fulfilled
O=C(NC(=S)N1CCN(c2ccc(Cl)cc2[N+](=O)[O-])CC1)c1cccs1 | not fulfilled

Answer whether hERG current change (%, negative = inhibition) at 10uM of COc1ccc(-c2csc(NC(=O)c3ccc(OCC(=O)N4CCOCC4)c(OC)c3)n2)cc1 is greater than or equal to -20%.
not fulfilled

Does the reported hERG current change (%, negative = inhibition) at 10uM for COc1cc(C(=O)Nc2nc(-c3ccc(C)cc3)cs2)ccc1OCC(=O)N1CCOCC1 fall at or above the -20% mark?
fulfilled

Hi, just wondering whether CN1C2C=C(N(C(=O)c3ccc(Cl)cc3)c3ccccc3)CC1CC2.Cl (stereo not shown) shows hERG current change (%, negative = inhibition) at 10uM of -20% or higher.
not fulfilled
